- System: iLRP-specific T cell clone H3 (Th1)
- ASSAY NOTES: BUdR incorporation ELISA proliferation assay, Th1 clone H3
- Format: cell-based, BALB/c mouse
- TEST CONTEXT: Table 8; overlapping 12-mers of iLRP 136-166; 100 U/ml IL-2
Below, each entry is listed with its recorded BudR Incorporation (A450), T cell clone H3 (Th1).

Reference set (5 entries):
{"columns": ["SEQUENCE INPUT", "VALUE MEASURED"],
 "data": [
  ["TIALCNTDSPLR [Peptide 31-3]", ".016 A450"],
  ["EASYVNLPTIAL [Peptide 31-1]", ".016 A450"],
  ["SPLRYVDIAIPC [Peptide 31-5]", ".95 A450"],
  ["VNLPTIALCNTD [Peptide 31-2]", ".015 A450"],
  ["YVDIAIPCNNKG [Peptide 31-6]", ".03 A450"]
]}

Please look at the following sequence next.
Qu. What does the data say about its BudR Incorporation (A450), T cell clone H3 (Th1)? Entry: CNTDSPLRYVDI [Peptide 31-4]
Ans. .81 A450

###

- System: iLRP-specific T cell clone L1 (CD8 Ts)
- ASSAY NOTES: BUdR incorporation ELISA proliferation assay, Ts clone L1
- Format: cell-based, BALB/c mouse
- TEST CONTEXT: Table 3; Expt. 1; 100 ng/well stimulant with irradiated syngeneic spleen cells (APC), 48 h culture
REPORTED PROPERTY: BUdR Incorporation (A450) of iLRP-specific T cell clone L1 cells, Expt. 1

The cases that follow already have their BUdR Incorporation (A450) of iLRP-specific T cell clone L1 cells, Expt. 1 on record.
{"columns": ["SEQUENCE INPUT", "ASSAYED SYSTEM", "VALUE MEASURED"],
 "data": [
  ["LDVLQMKEEDVL [Peptide 2]", "iLRP-specific T cell clone L1 (CD8 Ts)", ".017 A450"],
  ["KLLAAGTHLGGT [Peptide 4]", "iLRP-specific T cell clone L1 (CD8 Ts)", ".28 A450"],
  ["MSGALDVLQMKE [Peptide 1]", "iLRP-specific T cell clone L1 (CD8 Ts)", ".018 A450"]
]}

Qu. Value wanted: BUdR Incorporation (A450) of iLRP-specific T cell clone L1 cells, Expt. 1 (iLRP-specific T cell clone L1 (CD8 Ts)) of entry QMKEEDVLKLLAA [Peptide 3]
Ans. .09 A450
